system.under.test: integrin αvβ3 (Homo sapiens, UniProt P05106+P06756)
Construct: SW480 cells, a human colon cancer cell line not expressing integrin β3
Sequence (P06756 31-889 limits assumed): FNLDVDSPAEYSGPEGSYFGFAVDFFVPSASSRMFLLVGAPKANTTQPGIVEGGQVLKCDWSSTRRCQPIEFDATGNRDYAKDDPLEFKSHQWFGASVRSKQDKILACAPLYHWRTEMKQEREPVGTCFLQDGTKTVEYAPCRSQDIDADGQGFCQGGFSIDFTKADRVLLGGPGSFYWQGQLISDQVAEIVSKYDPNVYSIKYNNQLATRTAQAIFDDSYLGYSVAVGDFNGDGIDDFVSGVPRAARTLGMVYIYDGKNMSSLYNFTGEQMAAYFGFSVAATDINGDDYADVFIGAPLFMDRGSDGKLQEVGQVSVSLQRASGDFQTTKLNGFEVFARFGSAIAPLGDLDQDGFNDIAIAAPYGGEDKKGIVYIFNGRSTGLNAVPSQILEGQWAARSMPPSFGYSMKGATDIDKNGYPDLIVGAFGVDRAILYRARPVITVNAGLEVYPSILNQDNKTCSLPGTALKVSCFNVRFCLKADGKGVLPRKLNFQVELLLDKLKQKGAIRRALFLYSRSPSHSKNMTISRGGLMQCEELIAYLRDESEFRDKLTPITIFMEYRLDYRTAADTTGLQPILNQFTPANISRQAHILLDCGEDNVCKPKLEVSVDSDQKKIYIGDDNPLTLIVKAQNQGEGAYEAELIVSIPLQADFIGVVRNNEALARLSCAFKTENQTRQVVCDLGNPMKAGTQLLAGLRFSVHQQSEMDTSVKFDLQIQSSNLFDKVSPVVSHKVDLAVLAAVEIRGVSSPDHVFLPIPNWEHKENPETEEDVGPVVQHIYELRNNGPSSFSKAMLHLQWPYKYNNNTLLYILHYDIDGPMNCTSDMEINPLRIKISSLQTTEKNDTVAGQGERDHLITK
Sequence (P06756 891-1048 partner limits assumed): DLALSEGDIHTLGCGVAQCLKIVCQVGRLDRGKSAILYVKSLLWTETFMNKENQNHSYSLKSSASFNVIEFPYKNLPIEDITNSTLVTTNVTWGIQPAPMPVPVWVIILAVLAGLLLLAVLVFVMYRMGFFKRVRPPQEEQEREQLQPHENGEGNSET
Sequence (P05106 27-788): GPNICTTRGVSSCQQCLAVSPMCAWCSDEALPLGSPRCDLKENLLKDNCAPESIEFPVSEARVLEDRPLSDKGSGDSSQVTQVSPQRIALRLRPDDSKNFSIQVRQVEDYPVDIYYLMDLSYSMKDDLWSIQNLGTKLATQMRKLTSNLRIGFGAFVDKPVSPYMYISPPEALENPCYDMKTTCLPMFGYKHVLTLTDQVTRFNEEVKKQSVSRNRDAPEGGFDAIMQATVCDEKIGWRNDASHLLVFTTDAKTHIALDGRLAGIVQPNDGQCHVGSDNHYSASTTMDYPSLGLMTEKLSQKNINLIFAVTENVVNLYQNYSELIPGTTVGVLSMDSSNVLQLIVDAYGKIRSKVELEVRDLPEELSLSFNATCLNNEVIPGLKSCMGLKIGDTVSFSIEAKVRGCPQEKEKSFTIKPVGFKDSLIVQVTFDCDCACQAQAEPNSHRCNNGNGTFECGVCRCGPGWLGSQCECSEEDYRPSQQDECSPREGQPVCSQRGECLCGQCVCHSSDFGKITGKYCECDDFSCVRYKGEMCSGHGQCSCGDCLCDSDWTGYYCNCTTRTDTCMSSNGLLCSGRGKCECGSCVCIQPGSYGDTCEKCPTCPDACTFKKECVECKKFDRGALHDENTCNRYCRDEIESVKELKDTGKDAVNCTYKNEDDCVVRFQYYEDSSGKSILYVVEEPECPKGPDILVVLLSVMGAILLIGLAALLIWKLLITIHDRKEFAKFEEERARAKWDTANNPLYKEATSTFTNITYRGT
assay.explanation: Inhibition of periostin-dependent adhesion of SW480 cells expressing integrin αvβ3
condition.description: SW480 cells expressing human integrin β3; immobilized recombinant human periostin; compounds at 0.001-1 μM; FIG. 6; read-out: 50% inhibition concentration (IC50 value) for cell adhesion inhibitory activity
quantity: IC50

Problem: // IC50 lookup, key: Cc1cc(C)c(S(=O)(=O)N[C@@H](CNC(=O)c2ccc3c(cnn3CCCNc3ncc[nH]3)c2)C(=O)O)c(C)c1
Result: ≤ 100 nM

Problem: Query (compound): COc1ccc(S(=O)(=O)N[C@@H](CNc2nc(C)nc(N3CCC(c4ccc5c(n4)NCCC5)CC3)c2C)C(=O)O)cc1 ; field requested: IC50
Result: ≤ 1 nM

Problem: What IC50 value was documented for this compound, O=C(NC[C@H](NS(=O)(=O)c1ccccc1)C(=O)O)c1ccc(N2CCC(NC3=NCCCN3)CC2)c(F)c1 ?
Result: ≤ 1 nM

Problem: What does the data say about its IC50? Entry: O=C(NC[C@H](NS(=O)(=O)c1cccs1)C(=O)O)c1ccc(N2CCC[C@H](NC3=NCCCN3)C2)cc1
Result: ≤ 1 nM

Problem: Fill in: IC50 of CC(C)COC(=O)N[C@@H](CCC(=O)N1CCN(c2cccc(NC3=NCC(F)CN3)c2)CC1)C(=O)O (stereo partly shown) is ___
Result: ≥ 1000 nM

Problem: Record request: IC50 value, item O=C(O)C[C@H]1Cc2ccc(OCCCNc3ccccn3)cc2CN(CC(F)(F)F)C1=O [SB-267268 enantiomer]
Result: ≥ 1000 nM

Problem: Consider the compound shown here: CNc1cccc(CCOc2ccc3c(c2)CN(CC(F)(F)F)C(=O)[C@H](CC(=O)O)C3)n1 What is its recorded IC50?
Result: ≤ 20 nM

###

system.under.test: integrin αvβ3 (Homo sapiens, UniProt P05106+P06756)
Construct: SW480 cells, a human colon cancer cell line not expressing integrin β3; expressed in transfected cells; host or cells: SW480 cells (human colon cancer) stably expressing human integrin β3
assay.explanation: Inhibition of periostin-dependent adhesion of SW480 cells expressing integrin αvβ3
Format: cell-based
condition.description: SW480 cells expressing integrin αvβ3; immobilized recombinant human periostin; FIG. 6
quantity: cell adhesion inhibitory effect (in words)

Observe how each entry below is paired with its result.
Problem: Please give the measured cell adhesion inhibitory effect (in words) for this compound: O=C(NC[C@H](NS(=O)(=O)c1ccccc1)C(=O)O)c1ccc(N2CCC[C@H](NC3=NCCCN3)C2)cc1 [CP derivative 6]
Result: high

Problem: Reported cell adhesion inhibitory effect (in words) for Cc1cc(C)c(S(=O)(=O)N[C@@H](CNC(=O)c2ccc3c(cnn3CCCNc3ncc[nH]3)c2)C(=O)O)c(C)c1 [SM-256] : what is it?
Result: low

Problem: What does the data say about its cell adhesion inhibitory effect (in words)? Entry: O=C(NC[C@H](NS(=O)(=O)c1cccs1)C(=O)O)c1ccc(N2CCC[C@H](NC3=NCCCN3)C2)cc1 [CP derivative 9]
Result: high

Problem: Returns the measured cell adhesion inhibitory effect (in words) for the input compound. Input: N=C(N)Nc1cccc(C(=O)NCC(=O)NC(CC(=O)O)c2cc(Cl)cc(Cl)c2)c1 (stereo not shown) [SC-68448]
Result: moderate

Next:
Problem: Please report the recorded cell adhesion inhibitory effect (in words) for COc1ccc(S(=O)(=O)N[C@@H](CNc2nc(C)nc(N3CCC(c4ccc5c(n4)NCCC5)CC3)c2C)C(=O)O)cc1 [GLPG-0187] .
Result: high

Problem: Quick one: cell adhesion inhibitory effect (in words) of O=C(NC[C@H](NS(=O)(=O)c1ccccc1)C(=O)O)c1ccc(N2CCC(NC3=NCCCN3)CC2)c(F)c1 [CP derivative 2] ?
Result: high

Problem: Give its cell adhesion inhibitory effect (in words) value. Item: O=C(NC[C@H](NS(=O)(=O)c1ccccc1)C(=O)O)c1ccc(N2CCC[C@H](NC3=NCCCN3)C2)cc1F [CP derivative 7]
Result: high

Problem: Requested field: cell adhesion inhibitory effect (in words). Item: O=C(O)C[C@@H]1Cc2ccc(OCCCNc3ccccn3)cc2CN(CC(F)(F)F)C1=O [SB-267268]
Result: moderate

Problem: I would be grateful if you could share the reported cell adhesion inhibitory effect (in words) for CNc1cccc(CCOc2ccc3c(c2)CN(CC(F)(F)F)C(=O)[C@H](CC(=O)O)C3)n1 [SB-273005] .
Result: moderate

Problem: Endpoint output: cell adhesion inhibitory effect (in words) of COc1cc(C(=O)NC[C@H](NS(=O)(=O)c2ccccc2)C(=O)O)ccc1N1CCC(NC2=NCCCN2)CC1 [CP4715] . Value?
Result: high

###

system.under.test: integrin αvβ3 (Homo sapiens, UniProt P05106+P06756)
Construct: SW480 cells, a human colon cancer cell line not expressing integrin β3
assay.explanation: Inhibition of periostin-dependent adhesion of SW480 cells expressing integrin αvβ3
condition.description: SW480 cells expressing human integrin β3; immobilized recombinant human periostin; compounds at 0.001-1 μM; FIG. 6; read-out: 50% inhibition concentration (IC50 value) for cell adhesion inhibitory activity
pIC50: −log10 of the molar value.
# maps each entry to its pIC50

Here's what some known entries look like.
Problem: // pIC50 lookup, key: O=C(NC[C@H](NS(=O)(=O)c1ccccc1)C(=O)O)c1ccc(N2CCC[C@H](NC3=NCCCN3)C2)cc1F
Result: ≥ 9.00

Problem: Which pIC50 reading was recorded for the compound O=C(NC[C@H](NS(=O)(=O)c1ccccc1)C(=O)O)c1ccc(N2CCC[C@H](NC3=NCCCN3)C2)cc1 ?
Result: ≥ 9.00

Problem: For the compound shown here, O=C(O)C[C@@H]1Cc2ccc(OCCCNc3ccccn3)cc2CN(CC(F)(F)F)C1=O , give the reported pIC50.
Result: ≥ 7.70

// switching to the query compound
Problem: Which pIC50 is listed for COc1cc(C(=O)NC[C@H](NS(=O)(=O)c2ccccc2)C(=O)O)ccc1N1CCC(NC2=NCCCN2)CC1 ?
Result: ≥ 9.00
